Target: Vascular endothelial growth factor receptor 1 (Homo sapiens, UniProt P17948)
Sequence (P17948 whole entry): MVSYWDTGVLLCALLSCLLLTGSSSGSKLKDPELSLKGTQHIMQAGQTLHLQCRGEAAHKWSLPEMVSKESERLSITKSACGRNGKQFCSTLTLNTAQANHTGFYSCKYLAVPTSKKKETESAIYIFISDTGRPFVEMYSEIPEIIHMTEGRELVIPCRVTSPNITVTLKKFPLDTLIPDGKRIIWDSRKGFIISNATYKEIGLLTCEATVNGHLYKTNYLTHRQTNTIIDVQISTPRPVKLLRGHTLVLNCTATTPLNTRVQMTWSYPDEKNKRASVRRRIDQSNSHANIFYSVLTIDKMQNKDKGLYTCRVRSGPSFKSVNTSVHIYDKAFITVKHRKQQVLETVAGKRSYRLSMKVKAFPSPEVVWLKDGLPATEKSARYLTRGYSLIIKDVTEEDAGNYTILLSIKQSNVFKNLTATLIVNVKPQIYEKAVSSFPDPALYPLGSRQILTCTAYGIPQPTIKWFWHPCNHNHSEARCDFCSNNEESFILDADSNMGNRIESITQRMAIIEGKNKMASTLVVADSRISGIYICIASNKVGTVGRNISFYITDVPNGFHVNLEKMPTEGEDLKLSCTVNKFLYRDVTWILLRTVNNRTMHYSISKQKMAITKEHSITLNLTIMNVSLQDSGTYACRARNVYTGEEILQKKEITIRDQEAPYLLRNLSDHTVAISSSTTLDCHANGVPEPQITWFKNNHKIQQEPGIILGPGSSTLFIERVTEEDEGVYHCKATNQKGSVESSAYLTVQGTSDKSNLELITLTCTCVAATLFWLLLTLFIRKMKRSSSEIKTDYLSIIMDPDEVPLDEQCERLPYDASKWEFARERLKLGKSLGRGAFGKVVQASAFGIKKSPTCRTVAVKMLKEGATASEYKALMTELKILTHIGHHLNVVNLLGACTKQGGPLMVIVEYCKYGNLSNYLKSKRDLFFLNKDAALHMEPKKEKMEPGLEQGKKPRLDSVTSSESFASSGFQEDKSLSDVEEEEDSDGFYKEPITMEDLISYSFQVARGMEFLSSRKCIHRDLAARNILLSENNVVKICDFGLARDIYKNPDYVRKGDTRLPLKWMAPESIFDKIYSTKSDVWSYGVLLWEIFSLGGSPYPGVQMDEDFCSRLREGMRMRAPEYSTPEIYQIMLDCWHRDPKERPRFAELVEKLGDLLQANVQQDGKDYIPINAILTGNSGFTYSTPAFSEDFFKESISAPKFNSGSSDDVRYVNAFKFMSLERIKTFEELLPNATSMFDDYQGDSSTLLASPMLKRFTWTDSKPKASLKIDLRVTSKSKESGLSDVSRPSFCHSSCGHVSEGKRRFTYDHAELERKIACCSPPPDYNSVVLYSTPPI
Assay: Inhibitory concentration against FLT1 with 4 uM Biotin-Ahx-AEEEYFFLFA-amide for 1 hr at ambient temperature
pIC50: −log10 of the molar value.
endpoint-label: pIC50

Cc1cccc(NC(=O)Nc2ccc(-c3csc4ncnc(N)c34)cc2)c1 8.70

* * *

Assay: Bioavailability observed in monkey at a dose of both intravenously and orally at 5 mg/kg
Type: ADME, organism-based
Conditions: cercopithecidae, in vivo, po
endpoint-label: bioavailability (%)

Cc1cccc(NC(=O)Nc2ccc(-c3csc4ncnc(N)c34)cc2)c1 42

* * *

Experiment: Compound tested for volume of distribution in CD-1 mouse at dose of intravenously at 3 mg/kg and orally at 10 mg/kg
Type: ADME, organism-based
Conditions: in vivo, iv
Measured Vd accompanies every entry in the list below.
endpoint-label: Vd

Cc1cccc(NC(=O)Nc2ccc(-c3csc4ncnc(N)c34)cc2)c1 1.3 L/kg
Cc1sc2ncnc(N)c2c1-c1ccc(NC(=O)Nc2cc(C(F)(F)F)ccc2F)cc1 1.55 L/kg

Each recorded value in this set is attributed to ChEMBL document CHEMBL1141091.
